Experiment: mitochondrial membrane potential change in A549 cells, profiling panel, cell-based, JC-1 fluorescence, basal, 24 h, 100 nL (AID 1138);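 note: A549 lung adenocarcinoma cells under basal conditions with no added stimulus; test concentration not given here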
Conditions: higher = more signal
Assay readout: z-score
# answer = number (no unit)

Reference set (8 entries):
Compound: O=C1C[C@]2(c3ccc([N+](=O)[O-])cc3)C(=O)N(Cc3ccccc3)c3cc(CO)ccc3[C@H]2N1CC12CC3CC(CC(C3)C1)C2
Readout value: -0.0834
//
Compound: CC(C)c1ccc(NN2C(C(O)c3ccco3)C=CC3C(=O)N(c4ccccc4)C(=O)C32)cc1 (stereo not given)
Readout value: 0.222
//
Compound: C=CCC(OC(C)=O)[C@@H]1[C@@H](N(Cc2cc3ccccc3o2)C(=O)Cc2ccc(F)cc2)c2cc(OCCCO)ccc2N1C(=O)c1ccc2ccccc2n1 (stereo not given in full)
Readout value: 0.728
//
Compound: C[C@]1(C(=O)NCCN2CCOCC2)c2ccccc2C(=O)N(Cc2ccc(OC(F)(F)F)cc2)[C@H]1c1ccc(CO)cc1
Readout value: 1.68
//
Compound: COc1cc2c(cc1O)C(C)N(Cc1cc3c(cc1Br)OCO3)CC2 (stereo not given)
Readout value: -0.472
//
Compound: COc1ccc([Si](C)(C)[C@@H]2[C@@H](CCO)O[C@]3(C(=O)N(Cc4cccc(N5C(=O)c6ccccc6Oc6ccccc65)c4)c4ccccc43)[C@H]2C)cc1
Readout value: -0.368
//
Compound: CN(C)CCCN1C(=O)[C@@]2(c3ccc([N+](=O)[O-])cc3)CC(=O)N(CC34CC5CC(CC(C5)C3)C4)[C@@H]2c2ccc(CO)cc21
Readout value: 1.72
//
Compound: Cc1c(NC(=O)/C(C#N)=C/C=C/c2ccccc2[N+](=O)[O-])c(=O)n(-c2ccccc2)n1C
Readout value: 0.511

Consider the compound C=C(C(=O)CC[C@H](OC(=O)c1cccnc1)c1ccc(CO)o1)C(C)C and give its measured z-score.
-0.559

Also need CCC[C@@H]1C[C@@]1(CCC)[C@@H](NP(=O)(c1ccccc1)c1ccccc1)c1ccc(Cl)cc1 , thanks.
-1.22

Query CCCCC(CC)C(O)C1C=CC2C(=O)N(c3ccccc3)C(=O)C2N1Nc1ccc([N+](=O)[O-])cc1 (stereo not given) next
-1.19
